# reported GI50; entries follow
system: SF-539 CNS; experiment: NCI tumour cell line growth inhibition, 48 h

>  <CHEMICAL STRING>
ClCc1ccc(-c2ccc(Cn3cnc4c(Cl)ncnc43)cc2)cc1

>  <MEASUREMENT LABEL>
GI50

>  <REPORTED VALUE>
1520 nM

$$$$
>  <CHEMICAL STRING>
COc1ccc2c(c1)C(=O)c1c-2c(OCCN2CCCCC2)nc2ccc(OC)cc12

>  <MEASUREMENT LABEL>
GI50

>  <REPORTED VALUE>
693 nM

$$$$

Consider the record given below.
Param item: O=[N+]([O-])c1cccc([I+]c2ccccc2)c1 ; param system: SF-539 CNS; output GI50: 10800 nM

* * *

system: OVCAR-8 ovarian; assay: NCI tumour cell line growth inhibition, 48 h
MEASUREMENT LABEL: TGI

Lookup result for COC1/C=C/OC2(C)Oc3c(C)c(O)c4c(O)c(c(C=NOC(c5ccccc5)c5ccccc5)c(O)c4c3C2=O)NC(=O)/C(C)=C/C=C/C(C)C(O)C(C)C(O)C(C)C(OC(C)=O)C1C (centres undefined) ; measured TGI: 4.64 µM

Lookup result for O=[N+]([O-])c1cccc([I+]c2ccccc2)c1 ; measured TGI: 17.6 µM

* * *

tested on: K-562 leukemia; assay: NCI tumour cell line growth inhibition, 48 h
MEASUREMENT LABEL: TGI

>  <CHEMICAL STRING>
O=[N+]([O-])c1ccc2c(N=Nc3ccc4ccccc4c3O)c(O)cc(S(=O)(=O)O)c2c1

>  <REPORTED VALUE>
> 95.1 µM

$$$$

Param item: CN(C)CCCN=c1c2ccccc2n(C)c2[nH]c(=O)n(C)c(=O)c12 ; param system: K-562 leukemia; output TGI: > 52 µM

Param item: Cc1cc(C)c(C(=O)/C(=C/c2ccccc2)c2ccccc2)c(C)c1 ; param system: K-562 leukemia; output TGI: > 100 µM

* * *

tested on: M14 melanoma; assay: NCI tumour cell line growth inhibition, 48 h
MEASUREMENT LABEL: TGI

Previously resolved entries follow.
>  <COMPOUND>
CC(C)OC(=O)c1cccnc1/C=N/O

>  <TGI>
> 100 µM

$$$$
>  <COMPOUND>
Cc1cc(C)c(C2=NO[C@@H]3C(=O)N(c4ccc(Cc5ccc(N6C(=O)[C@H]7C(c8c(C)cc(C)cc8C)=NO[C@H]7C6=O)cc5)cc4)C(=O)[C@H]23)c(C)c1

>  <TGI>
> 100 µM

$$$$
>  <COMPOUND>
c1ccc(N2N=NC3C4CC(C5c6ccccc6C45)C32)cc1 (stereo unspecified)

>  <TGI>
> 100 µM

$$$$
>  <COMPOUND>
CCOC(=O)Nc1cc(-c2ccc(C)c(NS(C)(=O)=O)c2)nn2c(C)nnc12

>  <TGI>
> 100 µM

$$$$
>  <COMPOUND>
Cc1cc(C)c(C(=O)/C(=C/c2ccccc2)c2ccccc2)c(C)c1

>  <TGI>
> 100 µM

$$$$

Param item: O=C1c2ccccc2C(=O)c2c(NCC3CO3)cccc21 (stereo unspecified) ; param system: M14 melanoma; output TGI: 27.6 µM

Param item: CC(=O)CC12NC(=O)N(C)N=C1N(C)C(=O)N(C)C2=O (stereo unspecified) ; param system: M14 melanoma; output TGI: > 100 µM

Param item: COc1cc2c(cc1OC)-c1[nH]c3ccc([N+](=O)[O-])cc3c1CC(=O)N2 ; param system: M14 melanoma; output TGI: > 100 µM

Param item: O=C(NCCC1CN(S(=O)(=O)C(F)(F)F)c2ccccc21)OCc1ccccc1 (stereo unspecified) ; param system: M14 melanoma; output TGI: > 100 µM

Param item: NCCN(CCN)/[N+]([O-])=N/O ; param system: M14 melanoma; output TGI: > 100 µM

* * *

# reported GI50; entries follow
tested on: SK-MEL-28 melanoma; assay: NCI tumour cell line growth inhibition, 48 h

Previously resolved entries follow.
>  <CHEMICAL STRING>
CC/C(=C(/CC)c1ccc(O)cc1)c1ccc(O)cc1

>  <REPORTED VALUE>
6.96 µM

$$$$
>  <CHEMICAL STRING>
CCOC(=O)Nc1cc(-c2ccc(C)c(NS(C)(=O)=O)c2)nn2c(C)nnc12

>  <REPORTED VALUE>
2.69 µM

$$$$

Lookup result for Oc1[nH]c2ccccc2c1/C=c1/ccc2c(c1)N=C(c1cc(F)cc(F)c1)N=2 ; measured GI50: 7.24 µM

Lookup result for C=C(C)[C@@H]1CC[C@]2(C(=O)N3CCN(C)CC3)CC[C@]3(C)[C@H](CC[C@@H]4[C@@]5(C)CC[C@H](O)C(C)(C)[C@@H]5CC[C@]43C)[C@@H]12 ; measured GI50: 1.8 µM

* * *

tested on: T-47D breast; test: NCI tumour cell line growth inhibition, 48 h
# reported TGI; entries follow

Previously resolved entries follow.
>  <MOLECULE>
COC(=O)C1=C(C)NC2=C(C(=O)c3ccccc32)C1c1cn[nH]c1-c1ccccc1 (configuration not stated)

>  <TARGET>
T-47D breast

>  <REPORTED VALUE>
> 100 µM

$$$$
>  <MOLECULE>
NC(CSC1(c2ccc(Cl)cc2)c2ccccc2-c2ccccc21)C(=O)O (configuration not stated)

>  <TARGET>
T-47D breast

>  <REPORTED VALUE>
> 100 µM

$$$$
>  <MOLECULE>
Cc1cc2nc3c4cc([N+](=O)[O-])ccc4n(CCN(C)C)c3nc2cc1C

>  <TARGET>
T-47D breast

>  <REPORTED VALUE>
> 42 µM

$$$$
>  <MOLECULE>
COC(=O)[C@H](C)[C@@H]1CC[C@](C)(CCC2=C(C)CCCC2(C)C)OO1

>  <TARGET>
T-47D breast

>  <REPORTED VALUE>
> 25 µM

$$$$
>  <MOLECULE>
CC(C)(CO)NC(=O)c1cccs1

>  <TARGET>
T-47D breast

>  <REPORTED VALUE>
> 100 µM

$$$$

Consider the record given below.
Lookup result for O=C(O)c1c[nH]c2c(ccc3[nH]cc(C(=O)O)c(=O)c32)c1=O ; measured TGI: > 100 µM

* * *

# reported TGI; entries follow
system: SF-539 CNS; assay: NCI tumour cell line growth inhibition, 48 h

>  <COMPOUND>
Cc1cc(C)c(C(=O)/C(=C/c2ccccc2)c2ccccc2)c(C)c1

>  <TGI>
> 100 µM

$$$$
>  <COMPOUND>
CCN(CC)CC(O)c1cc(-c2ccc(Cl)cc2)nc2cc(Cl)ccc12 (centres undefined)

>  <TGI>
4.63 µM

$$$$
>  <COMPOUND>
O=C1c2ccccc2C(=O)c2c(NCC3CO3)cccc21 (centres undefined)

>  <TGI>
> 100 µM

$$$$
>  <COMPOUND>
CCOC(=O)[C@H](CO)Nc1c(O)c2c(c(O)c1Cl)C(=O)C=CC2=O

>  <TGI>
> 10 µM

$$$$
>  <COMPOUND>
COc1cc(CC2C(=O)OCC2[C@@H](OC(C)=O)c2ccc3c(c2)OCO3)c(Br)c(OC)c1OC (some centres undefined)

>  <TGI>
> 100 µM

$$$$
>  <COMPOUND>
O=C(NCCCc1cn[nH]c(=O)n1)c1cccc2nc3ccccc3nc12

>  <TGI>
> 100 µM

$$$$
>  <COMPOUND>
Cc1nc2cc(Nc3nc(Nc4ccc(F)cc4)nc(N4CCCC4)n3)ccc2n1Cc1ccccc1

>  <TGI>
3.32 µM

$$$$
>  <COMPOUND>
C=CCn1c(=O)c(C(=O)NC(=O)OCC)cn(C2CCCCC2)c1=O

>  <TGI>
> 100 µM

$$$$
>  <COMPOUND>
Clc1ccc(Nc2ncnc3c2sc2ncccc23)c(Cl)c1

>  <TGI>
7.37 µM

$$$$
>  <COMPOUND>
Cc1sc2nc3n(c(=O)c2c1C)N=C(c1ccccc1)CS3

>  <TGI>
> 100 µM

$$$$

Consider the record given below.
Lookup result for Cc1cc(Cl)ccc1Nc1nc2c(s1)C(=O)c1ccccc1C2=O ; measured TGI: 16 µM

* * *

# reported TGI; entries follow
test system: OVCAR-4 ovarian; test: NCI tumour cell line growth inhibition, 48 h
The reply should be a number in µM, with the unit left off.

Previously resolved entries follow.
>  <COMPOUND>
[Au+].c1c[n-]cn1.c1ccc([PH+](c2ccccc2)c2ccccc2)cc1

>  <TARGET>
OVCAR-4 ovarian

>  <UNIT OF MEASURE>
µM

>  <TGI>
36.7

$$$$
>  <COMPOUND>
CCOC(=O)C1=C(C)N(c2ccc(Cl)cc2)C2(O)C=CC(Nc3ccc(Cl)cc3)=C3C(=O)N(c4ccccc4)C(=O)C312 (centres undefined)

>  <TARGET>
OVCAR-4 ovarian

>  <UNIT OF MEASURE>
µM

>  <TGI>
15.1

$$$$
>  <COMPOUND>
C=C(C)[C@@H]1CC[C@]2(C(=O)N3CCN(C)CC3)CC[C@]3(C)[C@H](CC[C@@H]4[C@@]5(C)CC[C@H](O)C(C)(C)[C@@H]5CC[C@]43C)[C@@H]12

>  <TARGET>
OVCAR-4 ovarian

>  <UNIT OF MEASURE>
µM

>  <TGI>
3.37

$$$$

Consider the record given below.
Lookup result for CCOC(=O)[C@@]12NN=N[C@@H]1[C@H]1CO[C@H](c3ccccc3)N1C2=O ; measured TGI: 32.4

The reported numbers originate from PubChem BioAssay (NCI).
